# EXPERIMENTAL PARAMETERS: 288.15 K; 101.33 kPa; Liquid; Pulse-echo method
Parameter: speed of sound. Scope: all listed entries.
State the answer as a number, implicitly in m/s.

Solved entries:
molecule="CC(C)C(=O)[O-].C[NH2+]CCO [2-hydroxy-N-methylethanaminium isobutyrate]" measured_parameter="speed of sound" unit_tag=m/s measured_result=1640
molecule="CCCC(=O)[O-].C[NH2+]CCO [N-methyl-2-hydroxyethylammonium butanoate]" measured_parameter="speed of sound" unit_tag=m/s measured_result=1647.3

speed of sound for CCCCC(=O)[O-].C[NH2+]CCO [2-hydroxy-N-methylethanaminium pentanoate] is 1581.2

Measured speed of sound, CCC(=O)[O-].C[NH2+]CCO [2-hydroxy-N-methylethanaminium propionate] : 1720

Data point: C[NH2+]CCO.O=C[O-] [2-hydroxy-N-methylethanaminium formate] ; speed of sound = 1834.9

---

# EXPERIMENTAL PARAMETERS: 337.66 K; 101.33 kPa; Liquid; Vibrating tube method
MEASURED PARAMETER: mass density (kg/m3)
Report the figure in kg/m3 without appending any unit label.

Would you please look over these solved cases?
compound="C[NH2+]CCO.O=C[O-] [2-hydroxy-N-methylethanaminium formate]" unit_tag=kg/m3 measured_result=1106.66
compound="CCC(=O)[O-].C[NH2+]CCO [2-hydroxy-N-methylethanaminium propionate]" unit_tag=kg/m3 measured_result=1044.92
compound="CCCC(=O)[O-].C[NH2+]CCO [N-methyl-2-hydroxyethylammonium butanoate]" unit_tag=kg/m3 measured_result=1012.04

Per the records, this compound ( CC(=O)[O-].C[NH2+]CCO [N-methyl-2-hydroxyethylammonium acetate] ) has mass density equal to 1076.47

Lab book: mass density of CCCCC(=O)[O-].C[NH2+]CCO [2-hydroxy-N-methylethanaminium pentanoate] noted as 989.051

Kindly note the recorded mass density for CC(C)C(=O)[O-].C[NH2+]CCO [2-hydroxy-N-methylethanaminium isobutyrate] , which is 1017.18

---

Entries and their measured speed of sound follow.
# EXPERIMENTAL PARAMETERS: 296.15 K; 101.33 kPa; Liquid; Pulse-echo method
Respond numerically; units are m/s and should not be typed.

Some entries whose results are on file:
compound="CC(C)C(=O)[O-].C[NH2+]CCO [2-hydroxy-N-methylethanaminium isobutyrate]" measured_parameter="speed of sound" measured_result=1617
compound="C[NH2+]CCO.O=C[O-] [2-hydroxy-N-methylethanaminium formate]" measured_parameter="speed of sound" measured_result=1819.2
compound="CCCCC(=O)[O-].C[NH2+]CCO [2-hydroxy-N-methylethanaminium pentanoate]" measured_parameter="speed of sound" measured_result=1555.1
compound="CCCC(=O)[O-].C[NH2+]CCO [N-methyl-2-hydroxyethylammonium butanoate]" measured_parameter="speed of sound" measured_result=1620.9

Attention now shifts to the item below.
Record summary for CCC(=O)[O-].C[NH2+]CCO [2-hydroxy-N-methylethanaminium propionate] : reported speed of sound = 1695.9

---

# EXPERIMENTAL PARAMETERS: 296.65 K; 101.33 kPa; Liquid; Vibrating tube method
MEASURED PARAMETER: mass density (kg/m3)
Just the number in kg/m3, nothing appended.

Answered examples (4):
compound="CC(=O)[O-].C[NH2+]CCO [N-methyl-2-hydroxyethylammonium acetate]" measured_parameter="mass density" measured_result=1101.7
compound="C[NH2+]CCO.O=C[O-] [2-hydroxy-N-methylethanaminium formate]" measured_parameter="mass density" measured_result=1129.08
compound="CCCC(=O)[O-].C[NH2+]CCO [N-methyl-2-hydroxyethylammonium butanoate]" measured_parameter="mass density" measured_result=1040.27
compound="CCC(=O)[O-].C[NH2+]CCO [2-hydroxy-N-methylethanaminium propionate]" measured_parameter="mass density" measured_result=1072.22

Record CCCCC(=O)[O-].C[NH2+]CCO [2-hydroxy-N-methylethanaminium pentanoate] . Reported mass density: 1017.23

# compound CC(C)C(=O)[O-].C[NH2+]CCO [2-hydroxy-N-methylethanaminium isobutyrate] ; its mass density = 1044.32
